Reference source for all entries: patent US10988444B2

// values below are MIC; system is E. coli
Numeric answer only, unit µg/mL assumed.

Examples with their reported MIC follow.
> print(dat)
                                   compound  unit.info  measured.result
1  COC(=O)[C@H](CCCNC(=N)N)NC(=O)[C@H](CCCNC(=N)N)NC(=O)C(=O)c1cc(Br)ccc1NC(=O)c1ccc2ccccc2c1.Cl.Cl [Compound 66]      µg/mL               50
2  Cl.N=C(N)NCCCNC(=O)C(=O)c1cc(F)ccc1NC(=O)c1ccc2ccccc2c1 [Compound 37]      µg/mL               59
3  Cl.N=C(N)NCCCC[C@H](NC(=O)C(=O)c1ccccc1NC(=O)c1ccc2ccccc2c1)C(=O)O [Compound 51]      µg/mL               66

**Query** What is its MIC for E. coli? Entry: COC(=O)C(CCCN)NC(=O)C(CCCCN)NC(=O)C(=O)c1cc(Br)ccc1NC(=O)c1ccc2ccccc2c1.Cl.Cl (stereo not shown) [Compound 62]
**Result** 21
